Target: human PAH with the R408W mutation (Homo sapiens, UniProt P00439, R408W)
Construct: expressed in transfected cells
Sequence (P00439 1-452 R408W): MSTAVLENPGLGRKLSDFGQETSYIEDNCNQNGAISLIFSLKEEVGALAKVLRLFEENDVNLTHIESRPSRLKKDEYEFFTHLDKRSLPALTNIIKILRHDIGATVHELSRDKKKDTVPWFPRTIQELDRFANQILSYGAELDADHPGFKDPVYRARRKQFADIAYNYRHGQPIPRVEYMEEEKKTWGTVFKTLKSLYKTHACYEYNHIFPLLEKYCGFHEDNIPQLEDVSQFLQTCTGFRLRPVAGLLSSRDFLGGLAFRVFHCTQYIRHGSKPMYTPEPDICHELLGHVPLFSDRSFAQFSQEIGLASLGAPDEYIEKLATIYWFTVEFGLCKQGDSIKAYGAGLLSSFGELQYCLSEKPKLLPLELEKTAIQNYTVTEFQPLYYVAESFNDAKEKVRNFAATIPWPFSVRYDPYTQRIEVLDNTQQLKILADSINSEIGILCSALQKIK
Experiment: Cell Based Phenylalanine Flux Assay
Settings: A375 cells expressing human R408W PAH; 24 hrs compound incubation; 13C-Tyrosine by LC-MS; average where tested multiple times; read-out: AC50
Observable: AC50

Known AC50 results, listed for orientation:
O=C(c1cnn2ccccc12)N1CCc2[nH]cnc2[C@@H]1c1nc2ccccc2s1    1 to 5 µM
O=C(c1cnn(C2CC2)c1Cl)N1CCc2[nH]cnc2[C@H]1c1nc2c(F)cccc2s1    0.5 to 1 µM
Cc1nc(CCCN2CCOCC2)oc1C(=O)N1CCc2[nH]cnc2[C@@H]1c1nc2ccccc2s1    > 5 µM
O=C(c1cn(-c2ccccn2)nc1Cl)N1CCc2[nH]cnc2[C@@H]1c1nc2ccccc2s1    1 to 5 µM
O=C(c1cnn(CC2CC2)c1Cl)N1CCc2[nH]cnc2[C@H]1c1nc2c(F)cccc2s1    0.5 to 1 µM
O=C(c1cnc(C(F)(F)F)o1)N1CCc2[nH]cnc2[C@H]1c1nc2ccccc2s1    < 0.5 µM
Cn1cc(C(=O)N2CCc3[nH]cnc3[C@H]2c2nc3ccccc3s2)c(Cl)n1    < 0.5 µM

# input for lookup
Sure, the documented AC50 for O=C(c1cn[nH]c1Cl)N1CCc2[nH]cnc2[C@@H]1c1nc2ccccc2s1 is 1 to 5 µM

---

# AC50 per record follows
biological target: human PAH with the R408W mutation (Homo sapiens, UniProt P00439, R408W); construct: expressed in transfected cells; assay: Cell Based Phenylalanine Flux Assay; details: A375 cells expressing human R408W PAH; 24 hrs with compound; 13C-Tyrosine by LC-MS; average where tested multiple times; read-out: AC50

Here is how some compounds turned out for AC50.
O=C(Cc1nc(C(F)(F)F)cs1)N1CCc2[nH]cnc2C1c1nc2ccc(F)cc2s1 (stereo not shown)    1 to 5 µM
O=C(c1cncs1)N1CCc2[nH]cnc2C1c1nc2ccc(Cl)cc2[nH]1 (stereo not shown)    1 to 5 µM
COc1ccn2ncc(C(=O)N3CCc4[nH]cnc4C3c3nc4ccc(Br)cc4[nH]3)c2c1 (stereo not shown)    1 to 5 µM
O=C(c1cc2ccccn2n1)N1CCc2nc[nH]c2C1c1nc2ccccc2s1 (stereo not shown)    > 5 µM
Cc1nc(C(C)(C)O)oc1C(=O)N1CC(C)c2[nH]cnc2C1c1nc2c(F)cccc2s1 (stereo not shown)    > 5 µM
O=C(c1cnco1)N1CC2(CC2)c2[nH]cnc2C1c1nc2c(F)cccc2s1 (stereo not shown)    1 to 5 µM
O=C(c1nnc(CCCN2CC(F)C2)o1)N1CCc2[nH]cnc2C1c1nc2ccccc2s1 (stereo not shown)    > 5 µM
O=C(CCc1nccs1)N1CCc2nc[nH]c2C1c1nc2cc(Br)ccc2s1 (stereo not shown)    > 5 µM

Could you now look at the following compound, please?
# value of AC50, human PAH with the R408W mutation (Homo sapiens, UniProt P00439, R408W), item O=C(c1nc2ccccc2s1)N1CCc2[nH]cnc2C1c1nc2ccc(Cl)cc2[nH]1 (stereo not shown) = 1 to 5 µM

---

biological target: human PAH with the R408W mutation (Homo sapiens, UniProt P00439, R408W); construct: expressed in transfected cells; assay: Cell Based Phenylalanine Flux Assay; conditions: A375 cells expressing human R408W PAH; 24 hrs compound incubation; 13C-Tyrosine by LC-MS; average where tested multiple times; read-out: AC50
Quick reference: AC50 of the listed items.

Worked cases, AC50 given:
Cn1nc(C2CCC2)cc1C(=O)N1CCc2[nH]cnc2[C@H]1c1nc2c(F)cccc2s1    1000 to 5000 nM
O=C(c1ccnn1C(F)(F)F)N1CCc2[nH]cnc2[C@H]1c1nc2ccccc2s1    < 500 nM
Cn1ccc(-c2nnc(C(=O)N3CCc4[nH]cnc4[C@@H]3c3nc4ccccc4s3)o2)n1    1000 to 5000 nM
Cc1nc(C(C)(C)C)oc1C(=O)N1CCc2[nH]cnc2[C@@H]1c1nc2c(F)cccc2s1    1000 to 5000 nM
CC(C)(O)c1nnc(C(=O)N2CCc3[nH]cnc3[C@H]2c2nc3ccccc3s2)o1    1000 to 5000 nM
CCn1ncnc1C(=O)N1CCc2[nH]cnc2[C@@H]1c1nc2ccccc2s1    < 500 nM
O=C(N1CCC1)N1CCc2[nH]cnc2[C@@H]1c1nc2ccccc2s1    1000 to 5000 nM
Cc1nc(C(C)(C)F)oc1C(=O)N1CCc2[nH]cnc2[C@@H]1c1nc2c(F)cccc2s1    500 to 1000 nM

Reported AC50 of O=C(CCc1nccs1)N1CCc2[nH]cnc2[C@H]1c1nc2ccc(F)cc2s1 : 500 to 1000 nM

Reported AC50 ( Cc1nc(C(C)(C)C#N)oc1C(=O)N1CCc2[nH]cnc2[C@@H]1c1nc2c(F)cccc2s1 ) = 1000 to 5000 nM

---

Biological target: human PAH with the R408W mutation (Homo sapiens, UniProt P00439, R408W)
Construct: expressed in transfected cells
Sequence (P00439 1-452 R408W): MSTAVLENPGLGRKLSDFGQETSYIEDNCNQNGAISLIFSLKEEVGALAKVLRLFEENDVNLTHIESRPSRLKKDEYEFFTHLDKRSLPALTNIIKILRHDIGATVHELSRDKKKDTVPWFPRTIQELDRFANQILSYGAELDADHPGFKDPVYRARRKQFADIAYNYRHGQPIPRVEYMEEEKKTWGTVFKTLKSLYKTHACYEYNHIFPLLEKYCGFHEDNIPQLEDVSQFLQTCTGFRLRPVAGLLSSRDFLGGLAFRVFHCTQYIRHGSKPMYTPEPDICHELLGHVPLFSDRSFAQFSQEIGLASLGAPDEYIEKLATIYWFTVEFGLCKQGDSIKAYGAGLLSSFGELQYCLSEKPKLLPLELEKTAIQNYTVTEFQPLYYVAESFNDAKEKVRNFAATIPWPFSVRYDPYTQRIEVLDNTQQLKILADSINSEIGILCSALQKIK
Test: Cell Based Phenylalanine Flux Assay
Settings: A375 cells expressing human R408W PAH; 24 hrs compound incubation; 13C-Tyrosine by LC-MS; average where tested multiple times; read-out: AC50
Observable: AC50

Below: 3 compounds and their reported AC50.
O=C(c1cn(-c2ccccn2)nc1Cl)N1CCc2[nH]cnc2[C@H]1c1nc2ccccc2s1 [Example 1907]    500 to 1000 nM
N#Cc1ccn2ncc(C(=O)N3CCc4[nH]cnc4[C@H]3c3nc4cc(F)ccc4s3)c2c1 [Example 1160]    500 to 1000 nM
CC(C)(F)c1nnc(C(=O)N2CCc3[nH]cnc3[C@@H]2c2nc3ccccc3s2)o1 [Example 1833]    1000 to 5000 nM

Shift focus to the following entry.
Looking up O=C(c1cnn2ccccc12)N1CCc2[nH]cnc2[C@H]1c1nc2ccccc2s1 [Example 1009] , I see its AC50 listed as < 500 nM

---

compounds and their reported AC50
target: human PAH with the R408W mutation (Homo sapiens, UniProt P00439, R408W); construct: expressed in transfected cells; assay: Cell Based Phenylalanine Flux Assay; details: A375 cells expressing human R408W PAH; 24 hrs with compound; 13C-Tyrosine by LC-MS; average where tested multiple times; read-out: AC50
Where a name gives a salt, the structure may show the parent alone.

O=C(c1nnc(CCN2CC(F)C2)o1)N1CCc2[nH]cnc2C1c1nc2ccccc2s1 (centres unmarked)    1 to 5 µM
CC(C)(O)c1nc(C(=O)N2CCc3[nH]cnc3C2c2nc3c(F)cccc3s2)no1 (centres unmarked)    1 to 5 µM
O=C(c1n[nH]c2ccccc12)N1CCc2[nH]cnc2C1c1nc2cc(F)ccc2s1 (centres unmarked)    > 5 µM
O=C(c1cnc(-c2ccccn2)o1)N1CCc2[nH]cnc2[C@H]1c1nc2ccccc2[nH]1    1 to 5 µM
O=C(Cc1ccccn1)N1CCc2[nH]cnc2[C@H]1c1nc2ccccc2[nH]1    1 to 5 µM
Cc1nnc(C(=O)N2CCc3[nH]cnc3C2c2nc3cc(F)ccc3s2)s1 (centres unmarked)    > 5 µM
O=C(c1ncn2ccccc12)N1CCc2[nH]cnc2C1c1nc2ccccc2[nH]1 (centres unmarked)    > 5 µM
Cc1nnc(C(=O)N2CC(C)c3[nH]cnc3C2c2nc3ccccc3s2)o1 (centres unmarked)    1 to 5 µM
O=C(c1cnco1)N1CC2(CC2)c2[nH]cnc2C1c1nc2c(F)cccc2s1 (centres unmarked)    > 5 µM
O=C(N1CCC(O)C1)N1CCc2[nH]cnc2C1c1nc2ccccc2s1 (centres unmarked)    1 to 5 µM

Please fill in: AC50 reported for CC(C)(O)c1noc(C(=O)N2CCc3[nH]cnc3C2c2nc3ccccc3s2)n1 (centres unmarked) = 1 to 5 µM

The compound listed as COc1cccc(C=CC(=O)N2CCc3[nH]cnc3C2c2nc3ccccc3[nH]2)c1 (centres unmarked) has a reported AC50 of 1 to 5 µM

AC50 in this record for Cn1ncnc1C(=O)N1CCc2[nH]cnc2[C@@H]1c1nc2c(F)cccc2s1 (single isomer, unassigned) : > 5 µM

Summary for this compound, Cn1cc(-c2ncc(C(=O)N3CCc4[nH]cnc4[C@H]3c3nc4ccccc4[nH]3)o2)cn1 [hydrochloride] : AC50 is > 5 µM
